# assayDetails: Growth inhibition of human RPMI8226 cells assessed as cell growth at 10^-7 M incubated for 48 hrs by sulforhodamine B assay
# Type: functional
# measurementParameters: RPMI-8226, 48 h, read-out: Activity
growth at 0.1 µM overview

querySmiles	displayUnit	growth at 0.1 µM
Clc1ccc(-c2nc(Nc3ccc(-c4nc5ccccc5[nH]4)cc3)nc(N3CCOCC3)n2)cc1	%	99
c1ccc2[nH]c(-c3ccc(Nc4nc(N5CCCCC5)nc(N5CCOCC5)n4)cc3)nc2c1	%	95
Fc1ccc(-c2nc(Nc3ccc(-c4nc5ccccc5[nH]4)cc3)nc(N3CCOCC3)n2)cc1	%	99
c1ccc(-c2nc(Nc3ccc(-c4nc5ccccc5[nH]4)cc3)nc(N3CCOCC3)n2)cc1	%	97
